- target: T1, recombinant human BCMA-his fusion protein (ACRO Biosystem, Cat. No. BCA-H522y) (human, UniProt Q02223 1-54)
- T1 construct: extracellular domain; Bought protein; also called huBCMA-his; hu BCMA-his; not shown: His tag
- T1 sequence (looked up): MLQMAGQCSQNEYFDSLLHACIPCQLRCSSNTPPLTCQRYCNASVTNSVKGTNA
- method: SPR (Biacore T200), anti-His capture on CM5, 1:1 fit
measurement-name: log10 of koff (log10 of the value in s⁻¹)

binder="human-mouse chimeric antibody c-mAb3 (antibody, human IgG1, V domains shown, not shown: human IgG1 heavy chain constant region, GenBank No. AK303185.1; human kappa light chain constant region, GenBank No. MG815648.1) VH: EVQLQQSGPELVKPGASVKILCKASGYTITDYNMDWVKRSHGKSLEWIGNINPHNGGSIYNQKFKGKATLTVDKSSSTAFMELRSLTSEDTAVYYCARGDATLVLDYWGQGTSLTVSS VL: DIVLTQSPASLAVSLGQRATISCRASKSVSTSGLSYMHWYQQKPGQPPKVLIYLASNLESGVPARFSGSGSGTDFTLNIHPVEEEDAATYYCQHSRELPPTFGAGTKLELK" numeric_result=-2.75
binder="humanized antibody hu-mAb3 (VH3+VL3) (antibody, V domains shown, human IgG1/kappa named only as preferred) VH: QVQLVQSGAEVKKPGASVKVSCKASGYTITDYNMDWVRQAPGQGLEWIGNINPHNGGSIYNQKFQGRATLTVDKSTSTAYMELSSLRSEDTAVYYCARGDATLVLDYWGQGTTVTVSS VL: DIQLTQSPSSLSASVGDRATITCRASKSVSTSGLSYMHWYQQKPGKAPKVLIYLASNLESGVPARFSGSGSGTDFTLTISSVQPEDFATYYCQHSRELPPTFGQGTKLELK" numeric_result=-2.63
binder="humanized antibody hu-mAb2 (VH2+VL2) (antibody, V domains shown, human IgG1/kappa named only as preferred) VH: QVQLVQSGAEVKKPGSSVKVSCKVSGYTFTDHTIHWMKQAPGQGLEWIGYIYPRNGNTKYNEKFKGKATLTADKSTSTAYMELSSLRSEDTAVYFCARYDYDGYFDVWGQGTLVTVSS VL: DVVMTQTPLSLSVTPGQPASISCRSSQSHVHSDGHTYLHWYLQKPGQSPELLIYKVSNRFSGVPDRFSGSGSGTDFTLKISRVEAEDVGVYFCSQNTHFPWTFGGGTKVEIK" numeric_result=-1.59
binder="human-mouse chimeric antibody c-mAb1 (antibody, human IgG1, V domains shown, not shown: human IgG1 heavy chain constant region, GenBank No. AK303185.1; human kappa light chain constant region, GenBank No. MG815648.1) VH: EVQLQQSGPELVKPGTSVEMSCKASGYTFTDYNIHWVRQRHGESLEWLGYINPNNGVTNFNQKFKGKATLTVNKSSSTAYMELRSLTSDDSAVYYCSSGLFDGYPFPYWGQGTLVTVSA VL: DIVLTQSPASLVVSLGQRATISCRASKSVSTSGYNYIHWYQQKPGQPPKLLIFLASNLKSGVPARFSGGGSGTDFTLNIHPVEEDDAATYFCQHNRELPYTFGGGTKVEIK" numeric_result=-2.69
binder="human-mouse chimeric antibody c-mAb2 (antibody, human IgG1, V domains shown, not shown: human IgG1 heavy chain constant region, GenBank No. AK303185.1; human kappa light chain constant region, GenBank No. MG815648.1) VH: QVQLQQSDAELVKPGTSVKISCKVSGYTFTDHTIHWMKQRPEQGLEWIGYIYPRNGNTKYNEKFKGKATLTADKSSSTAYMHLNSLTSEDSAVYFCARYDYDGYFDVWGTGTTVTVSS VL: DVVMTQTPLSLPVSLGDQASISCRSSQSHVHSDGHTYLHWYLQKPGQSPELLIYKVSNRFSGVPDRFSGSGSGTDFTLKISRVEAEDLGVYFCSQNTHFPWTFGGGTKLEIK" numeric_result=-1.17
